# ASSAY_NAME: Pharmacokinetic study in beagle dogs
# Format: in vivo
# RECORDED_CONDITIONS: dog, in vivo, iv, 0.5 mg/kg
PARAMETER_MEASURED: clearance (mL/min/kg)

[[record]]
compound = "COc1ncc(-c2ccc(Cl)cc2)cc1[C@@H](c1ccccc1)[C@@](O)(CCN(C)C)c1cccc2ccccc12 [WX-081, sudapyridine]"
parameter_measured = "clearance"
result_number = 2.04


====

# ASSAY_NAME: Pharmacokinetic study in mice
# Format: in vivo, BALB/c mice
# RECORDED_CONDITIONS: BALB/c, mouse, in vivo, iv, 1 mg/kg
PARAMETER_MEASURED: Vd (L/kg)

[[record]]
chemical_smiles = "COc1ncc(-c2ccc(Cl)cc2)cc1[C@@H](c1ccccc1)[C@@](O)(CCN(C)C)c1cccc2ccccc12"
uom = "L/kg"
result_number = 10.4


====

# ASSAY_NAME: Pharmacokinetic study in beagle dogs
# Type: in vivo
# RECORDED_CONDITIONS: dog, in vivo, po, 2 mg/kg, AUC0-inf
PARAMETER_MEASURED: AUC(0-inf) (µg·h/mL)

[[record]]
chemical_smiles = "COc1ncc(-c2ccc(Cl)cc2)cc1[C@@H](c1ccccc1)[C@@](O)(CCN(C)C)c1cccc2ccccc12"
parameter_measured = "AUC(0-inf)"
result_number = 9.49


====

# ASSAY_NAME: Pharmacokinetic study in beagle dogs
# Type: in vivo
# RECORDED_CONDITIONS: dog, in vivo, po, 20 mg/kg
PARAMETER_MEASURED: bioavailability (%)

[[record]]
compound = "COc1ncc(-c2ccc(Cl)cc2)cc1[C@@H](c1ccccc1)[C@@](O)(CCN(C)C)c1cccc2ccccc12 [WX-081, sudapyridine]"
result_number = 34.9


====

# ASSAY_NAME: Pharmacokinetic study in beagle dogs
# Assay type: in vivo
# RECORDED_CONDITIONS: dog, in vivo, po, 2 mg/kg, Cmax
PARAMETER_MEASURED: Cmax

[[record]]
chemical_smiles = "COc1ncc(-c2ccc(Cl)cc2)cc1[C@@H](c1ccccc1)[C@@](O)(CCN(C)C)c1cccc2ccccc12"
result = "390 ng/mL"


====

# ASSAY_NAME: Pharmacokinetic study in mice
# Format: in vivo, BALB/c mice
# RECORDED_CONDITIONS: BALB/c, mouse, in vivo; Mice, Po. 6.25 mg/kg; read-out: AUC0-last
PARAMETER_MEASURED: AUC(0-t) (ng·h/mL)

[[record]]
chemical_smiles = "COc1nc2ccc(Br)cc2cc1[C@@H](c1ccccc1)[C@@](O)(CCN(C)C)c1cccc2ccccc12"
parameter_measured = "AUC(0-t)"
result_number = 6040


====

# ASSAY_NAME: Pharmacokinetic study in rats
# Type: in vivo, rat
# RECORDED_CONDITIONS: rat, in vivo, iv, 1 mg/kg
PARAMETER_MEASURED: Vd

[[record]]
chemical_smiles = "COc1ncc(-c2ccc(Cl)cc2)cc1[C@@H](c1ccccc1)[C@@](O)(CCN(C)C)c1cccc2ccccc12"
parameter_measured = "Vd"
result = "9.2 L/kg"


====

# SYSTEM_UNDER_TEST: human ether-á-go-go-related (hERG) ion channel (Homo sapiens, UniProt Q12809)
# Construct: expressed in transfected cells; host or cells: hERG-CHO cell (CHO cells expressing hERG)
# Sequence (Q12809 whole entry): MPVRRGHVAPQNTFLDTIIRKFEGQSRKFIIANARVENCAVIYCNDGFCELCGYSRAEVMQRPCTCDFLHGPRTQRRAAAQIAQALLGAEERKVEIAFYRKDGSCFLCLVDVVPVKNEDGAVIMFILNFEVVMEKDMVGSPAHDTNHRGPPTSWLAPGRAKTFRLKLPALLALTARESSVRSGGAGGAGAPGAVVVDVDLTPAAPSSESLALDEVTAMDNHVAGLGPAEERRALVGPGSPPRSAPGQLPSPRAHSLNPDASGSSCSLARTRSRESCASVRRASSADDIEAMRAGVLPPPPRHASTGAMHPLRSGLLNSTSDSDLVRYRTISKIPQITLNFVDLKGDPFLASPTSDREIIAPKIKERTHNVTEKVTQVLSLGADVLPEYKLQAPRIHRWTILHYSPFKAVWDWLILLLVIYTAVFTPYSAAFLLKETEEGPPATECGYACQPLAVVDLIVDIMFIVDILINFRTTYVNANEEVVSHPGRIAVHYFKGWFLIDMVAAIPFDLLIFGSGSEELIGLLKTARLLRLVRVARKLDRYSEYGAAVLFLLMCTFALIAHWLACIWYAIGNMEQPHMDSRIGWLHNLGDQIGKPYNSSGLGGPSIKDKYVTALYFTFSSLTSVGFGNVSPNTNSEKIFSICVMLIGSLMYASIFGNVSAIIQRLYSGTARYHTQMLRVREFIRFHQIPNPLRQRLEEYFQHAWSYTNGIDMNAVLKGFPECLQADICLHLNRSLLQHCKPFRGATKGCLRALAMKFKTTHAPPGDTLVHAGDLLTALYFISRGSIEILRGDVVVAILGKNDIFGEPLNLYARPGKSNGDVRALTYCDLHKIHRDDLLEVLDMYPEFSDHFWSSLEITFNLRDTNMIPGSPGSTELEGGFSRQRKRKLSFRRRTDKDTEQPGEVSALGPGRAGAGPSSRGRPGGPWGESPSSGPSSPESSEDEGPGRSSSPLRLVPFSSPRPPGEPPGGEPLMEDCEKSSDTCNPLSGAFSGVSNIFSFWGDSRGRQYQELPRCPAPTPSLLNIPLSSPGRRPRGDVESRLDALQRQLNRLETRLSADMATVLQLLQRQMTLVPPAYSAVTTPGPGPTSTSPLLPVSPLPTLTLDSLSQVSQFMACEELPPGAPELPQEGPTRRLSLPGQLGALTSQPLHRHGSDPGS
# ASSAY_NAME: hERG manual patch-clamp assay in hERG-CHO cell
# Type: cell-based
# RECORDED_CONDITIONS: metabolites
PARAMETER_MEASURED: IC50 (nM)

[[record]]
chemical_smiles = "CNCC[C@@](O)(c1cccc2ccccc12)[C@H](c1ccccc1)c1cc2cc(Br)ccc2nc1OC"
system_under_test = "human ether-á-go-go-related (hERG) ion channel (Homo sapiens, UniProt Q12809)"
parameter_measured = "IC50"
result_number = 1730


====

Below, each of the compounds is paired with its reported half-life value.
# ASSAY_NAME: Pharmacokinetic study in mice
# Assay type: in vivo, BALB/c mice
# RECORDED_CONDITIONS: BALB/c, mouse, plasma; Mice, Iv. 1.0 mg/kg
PARAMETER_MEASURED: half-life (h)

[[record]]
compound = "COc1ncc(-c2ccc(Cl)cc2)cc1[C@@H](c1ccccc1)[C@@](O)(CCN(C)C)c1cccc2ccccc12 [WX-081, sudapyridine]"
parameter_measured = "half-life"
uom = "h"
result_number = 46.3

[[record]]
compound = "COc1nc2ccc(Br)cc2cc1[C@@H](c1ccccc1)[C@@](O)(CCN(C)C)c1cccc2ccccc12 [BDQ, bedaquiline]"
parameter_measured = "half-life"
uom = "h"
result_number = 21.3


====

# ASSAY_NAME: Pharmacokinetic study in mice
# Assay type: in vivo, BALB/c mice
# RECORDED_CONDITIONS: BALB/c, mouse, in vivo; Mice, Iv. 1.0 mg/kg; read-out: Vdss
PARAMETER_MEASURED: Vd (L/kg)

[[record]]
chemical_smiles = "COc1nc2ccc(Br)cc2cc1[C@@H](c1ccccc1)[C@@](O)(CCN(C)C)c1cccc2ccccc12"
result_number = 6.21


====

# ASSAY_NAME: Pharmacokinetic study in rats
# Type: in vivo, rat
# RECORDED_CONDITIONS: in vivo; Rat, Po. 5.0 mg/kg; read-out: Tmax
PARAMETER_MEASURED: Tmax (min)

[[record]]
chemical_smiles = "COc1nc2ccc(Br)cc2cc1[C@@H](c1ccccc1)[C@@](O)(CCN(C)C)c1cccc2ccccc12"
uom = "min"
result_number = 49.8


====

# ASSAY_NAME: Pharmacokinetic study in rats
# Assay type: in vivo, rat
# RECORDED_CONDITIONS: rat, in vivo, po, 5 mg/kg
PARAMETER_MEASURED: AUC(0-inf) (ng·h/mL)

[[record]]
molecule = "COc1ncc(-c2ccc(Cl)cc2)cc1[C@@H](c1ccccc1)[C@@](O)(CCN(C)C)c1cccc2ccccc12 [WX-081, sudapyridine]"
parameter_measured = "AUC(0-inf)"
uom = "ng·h/mL"
result_number = 4310


====

# ASSAY_NAME: Pharmacokinetic study in mice
# Format: in vivo, BALB/c mice
# RECORDED_CONDITIONS: BALB/c, mouse, in vivo; Mice, Po. 6.25 mg/kg; read-out: F
PARAMETER_MEASURED: bioavailability (%)

[[record]]
compound = "COc1nc2ccc(Br)cc2cc1[C@@H](c1ccccc1)[C@@](O)(CCN(C)C)c1cccc2ccccc12 [BDQ, bedaquiline]"
parameter_measured = "bioavailability"
result_number = 47.1


====

# ASSAY_NAME: Pharmacokinetic study in beagle dogs
# Format: in vivo
# RECORDED_CONDITIONS: dog, in vivo, po, 20 mg/kg, time to peak concentration (Tmax)
PARAMETER_MEASURED: Tmax

[[record]]
chemical_smiles = "COc1ncc(-c2ccc(Cl)cc2)cc1[C@@H](c1ccccc1)[C@@](O)(CCN(C)C)c1cccc2ccccc12"
result = "4.6 to 7.7 h"


====

# ASSAY_NAME: Pharmacokinetic study in rats
# Format: in vivo, rat
# RECORDED_CONDITIONS: rat, in vivo, po, 5 mg/kg
PARAMETER_MEASURED: Cmax (ng/mL)

[[record]]
molecule = "COc1ncc(-c2ccc(Cl)cc2)cc1[C@@H](c1ccccc1)[C@@](O)(CCN(C)C)c1cccc2ccccc12 [WX-081, sudapyridine]"
uom = "ng/mL"
result_number = 328


====

# ASSAY_NAME: Pharmacokinetic study in beagle dogs
# Format: in vivo
# RECORDED_CONDITIONS: dog, in vivo, po, 6 mg/kg, Cmax
PARAMETER_MEASURED: Cmax (ng/mL)

[[record]]
chemical_smiles = "COc1ncc(-c2ccc(Cl)cc2)cc1[C@@H](c1ccccc1)[C@@](O)(CCN(C)C)c1cccc2ccccc12"
uom = "ng/mL"
result_number = 1080


====

# ASSAY_NAME: Pharmacokinetic study in rats
# Type: in vivo, rat
# RECORDED_CONDITIONS: rat, in vivo, po, 5 mg/kg
PARAMETER_MEASURED: Tmax (h)

[[record]]
molecule = "COc1ncc(-c2ccc(Cl)cc2)cc1[C@@H](c1ccccc1)[C@@](O)(CCN(C)C)c1cccc2ccccc12 [WX-081, sudapyridine]"
uom = "h"
result_number = 1


====

# ASSAY_NAME: Pharmacokinetic study in rats
# Format: in vivo, rat
# RECORDED_CONDITIONS: plasma; Rat, Iv. 1.0 mg/kg
PARAMETER_MEASURED: half-life (h)

[[record]]
chemical_smiles = "COc1ncc(-c2ccc(Cl)cc2)cc1[C@@H](c1ccccc1)[C@@](O)(CCN(C)C)c1cccc2ccccc12"
result_number = 25.6

[[record]]
chemical_smiles = "COc1nc2ccc(Br)cc2cc1[C@@H](c1ccccc1)[C@@](O)(CCN(C)C)c1cccc2ccccc12"
result_number = 37.6

